- Procedure Details: Ex vivo drug level in mdr1a (-/-) deficient CF1 mouse plasma at 0.3 mg/kg, po after 2 hrs
- Format: ADME, organism-based
- Parameters: dose 0.3 mg/kg, route oral
- Assay Conditions: read-out: Drug uptake
Assay Metric: concentration at 2 h (nM)
Numbers only, in nM.

Requested field: concentration at 2 h. Item: Cc1nc2cccc(F)c2c(=O)n1-c1ccc(OC2CCN(C3CCC3)CC2)cc1 28

----------
- Procedure Details: Drug level in Sprague-Dawley rat cerebrospinal fluid at 10 mg/kg, po after 2 hrs
- Assay type: ADME, organism-based
- Design: dose 10 mg/kg, route oral
- Assay Conditions: read-out: Drug uptake
Give concentration at 2 h for every item shown.
One number for each entry, in µM.

In [3]: df
Out[3]:
                           structure_string  value_reported
0  Cc1nc2cccc(F)c2c(=O)n1-c1ccc(OC2CCN(C3CCC3)CC2)cc1            0.95
1  Cc1nc2cccc(C(F)(F)F)c2c(=O)n1-c1ccc(OC2CCN(C3CCC3)CC2)cc1            0.11

Would you kindly look at the next entry?
Requested field: concentration at 2 h. Item: Cc1cccc2nc(C)n(-c3ccc(OC4CCN(C5CCC5)CC4)cc3)c(=O)c12 0.1

----------
- System Name: Histamine H3 receptor (Homo sapiens, UniProt Q9Y5N1)
- Sequence (Q9Y5N1 whole entry): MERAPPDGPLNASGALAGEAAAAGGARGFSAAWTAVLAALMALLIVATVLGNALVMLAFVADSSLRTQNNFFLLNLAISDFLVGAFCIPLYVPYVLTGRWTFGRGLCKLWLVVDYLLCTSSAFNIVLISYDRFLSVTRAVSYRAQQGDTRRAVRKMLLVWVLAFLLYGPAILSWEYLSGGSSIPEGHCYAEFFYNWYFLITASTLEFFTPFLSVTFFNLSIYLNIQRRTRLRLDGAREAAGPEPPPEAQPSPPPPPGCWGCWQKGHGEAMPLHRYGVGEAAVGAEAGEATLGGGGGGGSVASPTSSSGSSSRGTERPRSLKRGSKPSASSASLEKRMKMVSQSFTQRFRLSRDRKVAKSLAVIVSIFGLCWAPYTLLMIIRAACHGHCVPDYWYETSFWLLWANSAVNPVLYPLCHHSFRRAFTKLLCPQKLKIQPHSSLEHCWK
- Procedure Details: Antagonist activity at human cloned histamine H3 receptor expressed in CHO-K1 cells assessed as inhibition of R-alpha-methylhistamine-induced [35S]GTPgammaS binding
- Type: functional, cell-based
Give IC50 for every item shown.
Answers are plain numbers, in nM.

>>> df
                                   molecule  assay_metric  value_reported
0  COc1cccc2nc(C)n(-c3ccc(OC4CCN(C5CCC5)CC4)cc3)c(=O)c12          IC50             1.2

Can you give me IC50 for all of these, one by one?
1. Cc1nc2cnccc2c(=O)n1-c1ccc(OC2CCN(C3CCC3)CC2)cc1
2. Cc1nc2ccccc2c(=O)n1-c1ccc(OC2CCCN(C3CCC3)CC2)cc1 (configuration not stated)

1. 1.8
2. 10

Can you give me IC50 for all of these, one by one?
1. Cc1nc2ccccc2c(=O)n1-c1ccc(OC2CCN(C3CCC3)CC2)cc1
2. Cc1nc2ccccc2c(=O)n1-c1ccc(OC2CCN(C(C)C)CC2)cc1

[1.5, 14]

Can you give me IC50 for all of these, one by one?
1. Cc1nc2cccc(F)c2c(=O)n1-c1ccc(OC2CCN(C3CCC3)CC2)cc1
2. Cc1nc2c(Cl)cccc2c(=O)n1-c1ccc(OC2CCN(C3CCC3)CC2)cc1

1: 0.55; 2: 1.7

----------
- System Name: UniProt Q9Y5N1
- Procedure Details: Antagonist activity at human cloned histamine H3 receptor expressed in CHO-K1 cells assessed as inhibition of R-alpha-methylhistamine-induced [35S]GTPgammaS binding
Give pIC50 for every item shown.
Numbers only, as −log10 of the molar value.

Study these solved cases before continuing.
>>> df
                           structure_string  value_reported
0  COc1ccc2c(=O)n(-c3ccc(OC4CCN(C5CCC5)CC4)cc3)c(C)nc2c1            8.74
1  COc1ccc2nc(C)n(-c3ccc(OC4CCN(C5CCC5)CC4)cc3)c(=O)c2c1            8.82
2  Cc1nc2ccc(F)cc2c(=O)n1-c1ccc(OC2CCN(C3CCC3)CC2)cc1            8.92

Would you kindly look at the next entry?
Requested field: pIC50. Item: Cc1nc2c(F)cccc2c(=O)n1-c1ccc(OC2CCN(C3CCC3)CC2)cc1 9.08
